The measurements presented in this section are drawn from patent US20200353078A1.

Measured target: T1, His10/Avi Human IL33-01 (human)
T1 chain: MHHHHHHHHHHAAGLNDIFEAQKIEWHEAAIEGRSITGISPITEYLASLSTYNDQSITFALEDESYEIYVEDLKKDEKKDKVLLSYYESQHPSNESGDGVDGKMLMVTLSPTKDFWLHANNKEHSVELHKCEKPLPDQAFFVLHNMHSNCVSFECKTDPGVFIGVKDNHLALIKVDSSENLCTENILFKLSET
Protocol description: cell-based or functional assay
Measured property: IC50, Huvec IL-8 assay vs. His Avi IL-33 (nM)
Value expressed in nM; do not type the unit.

# Binder, IC50, Huvec IL-8 assay vs. His Avi IL-33 [nM]
data = [
    ("33_640201 IgG1 (antibody, V domains shown, IgG1; also called ZZ1JMY-H09) VH: EVQLLESGGGLVQPGGSLRLSCAASGFTFSSYAMSWVRQAPGKGLEWVSSIDAISSSTYYADSVKGRFTISRDNSKNTLYLQMNSLRAEDTAVYYCSRQKFMQLWGGGLRYPFGYWGQGTMVTVSS VL: SYVLTQPPSVSVSPGQTASITCSGERMGDKYAAWYQQKPGQSPVLVIYQDTKRPSGIPERFSGSNSGNTATLTISGTQAVDEADYYCGVLKQDTGVFGGGTKVTVL", 0.046),
]

Which measured IC50, Huvec IL-8 assay vs. His Avi IL-33 value corresponds to 33_640082-6 IgG1 (antibody, V domains shown, IgG1) VH: EVQLLESGGGLVQPGGSLRLSCAASGFTFSSYAMSWVRQAPGKGLEWVSGISGIDTSTYYADSVKGRFTISRDNSKNTLYLQMNSLRAEDTAVYYCARQKFMQLWGGGLRYPFGYWGQGTMVTVSS VL: SYVLTQPPSVSVSPGQTASITCSGERMGDKYAAWYQQKPGQSPVLVIYRDTKRPSGIPERFSGSNSGNTATLTISGTQAMDEADYYCGVLKQDTGVFGGGTKVTVL ? 0.03
